system.tested: KRAS^G12D protein (Homo sapiens, UniProt P01116, G12D)
Construct: host or cells: Aspc-1 (AsPC-1) cells
Sequence (P01116 1-188 isoform P01116-2 G12D): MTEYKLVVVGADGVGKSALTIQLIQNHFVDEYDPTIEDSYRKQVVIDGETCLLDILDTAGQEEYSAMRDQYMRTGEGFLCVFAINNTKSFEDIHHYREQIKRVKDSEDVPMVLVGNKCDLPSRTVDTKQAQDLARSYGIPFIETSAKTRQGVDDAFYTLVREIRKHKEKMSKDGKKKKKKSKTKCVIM
protocol.details: Protein degradation study (western blot) in Aspc-1 cells
Format: cell-based
test.parameters: ASPC1, 24 h, Aspc-1 cells treated with 50 nM compound, 24 hours; read-out: Rate of degradation
Each record here notes measured inhibition at 0.05 µM.

compound	inhibition at 0.05 µM
C#Cc1c(F)ccc2cccc(-c3ncc4c(N5CC6CCC(C5)N6)nc(OCC5(CN6CCC7(CC6)CC(N6CCC(c8ccc9c%10c(cccc8%10)C(=O)N9C8CCC(=O)NC8=O)CC6)C7)CC5)nc4c3F)c12 (stereo not drawn) [Compound 14a]	> 60%
Cn1nc(C2CCC(=O)NC2=O)c2ccc(C3CCN(C4CC5(CCN(CC6(COc7nc(N8CC9CCC(C8)N9)c8cnc(-c9cc(N)cc(Cl)c9C(F)(F)F)c(F)c8n7)CC6)CC5)C4)CC3)cc21 (stereo not drawn) [Compound 17a]	> 60%
C#Cc1c(F)ccc2cc(O)cc(-c3ncc4c(N5CC6CCC(C5)N6)nc(OCC5(CN6CCC7(CCC(N8CCC(c9ccc%10c(C%11CCC(=O)NC%11=O)nn(C)c%10c9)CC8)CC7)CC6)CC5)nc4c3F)c12 (stereo not drawn) [Compound 33a]	> 60%
C#Cc1c(F)ccc2cc(O)cc(-c3ncc4c(N5CC6CCC(C5)N6)nc(OCC5(CN6CCC7(CC6)CC(N6CCC(c8cc9c(cc8F)c(C8CCC(=O)NC8=O)nn9C)CC6)C7)CC5)nc4c3F)c12 (stereo not drawn) [Compound 41a]	> 60%
C#Cc1c(F)ccc2cc(O)cc(-c3ncc4c(N5CC6CCC(C5)N6)nc(OCC5(CN6CCC7(CC6)CC(N6CCC(c8ccc(NC9%10CC(C9)C(=O)NC%10=O)cc8F)CC6)C7)CC5)nc4c3F)c12 [Compound 36a]	> 60%
C#Cc1c(F)ccc2cc(O)cc(-c3ncc4c(N5CC6CCC(C5)N6)nc(OCC5(CN6CCC7(CC6)CC(N6CCC(c8cc9c(cc8F)c(N8CCC(=O)NC8=O)nn9C)CC6)C7)CC5)nc4c3F)c12	> 60%
C#Cc1c(F)ccc2cc(O)cc(-c3ncc4c(N5CC6CCC(C5)N6)nc(OCC5(CN6CCC(N7CC(CN8CCC(c9ccc%10c(C%11CCC(=O)NC%11=O)nn(C)c%10c9)CC8)C7)CC6)CC5)nc4c3F)c12 (stereo not drawn) [Compound 30a]	> 60%
C#Cc1c(F)ccc2cccc(-c3ncc4c(N5CC6CCC(C5)N6)nc(OCC5(CN6CCC7(CC6)CC(N6CCC(c8ccc(NC9CCC(=O)NC9=O)cc8F)CC6)C7)CC5)nc4c3F)c12 (stereo not drawn) [Compound 22a]	31 to 60%
C#Cc1c(F)ccc2cc(O)cc(-c3ncc4c(N5CC6CCC(C5)N6)nc(OCC5(CN6CCC7(CC6)CC(CN6CCC(c8ccc9c(C%10CCC(=O)NC%10=O)nn(C)c9c8)CC6)C7)CC5)nc4c3F)c12 (stereo not drawn) [Compound 29a]	11 to 30%
C#Cc1c(F)ccc2cc(O)cc(-c3ncc4c(N5CC6CCC(C5)N6)nc(OCC5(CN6CC7(CC(C(=O)N8CCC(c9ccc%10c(C%11CCC(=O)NC%11=O)nn(C)c%10c9)CC8)C7)C6)CC5)nc4c3F)c12 (stereo not drawn) [Compound 27a]	11 to 30%
C#Cc1c(F)ccc2cc(O)cc(-c3ncc4c(N5CC6CCC(C5)N6)nc(OCC5(CN6CC7(CCC(N8CCC(c9ccc%10c(C%11CCC(=O)NC%11=O)nn(C)c%10c9)CC8)CC7)C6)CC5)nc4c3F)c12 (stereo not drawn) [Compound 31a]	> 60%
C#Cc1c(F)ccc2cc(O)cc(-c3ncc4c(N5CC6CCC(C5)N6)nc(OCC5(CN6CCC(N7CC(N8CCC(c9ccc%10c(C%11CCC(=O)NC%11=O)nn(C)c%10c9)CC8)C7)CC6)CC5)nc4c3F)c12 (stereo not drawn) [Compound 34a]	> 60%
C#Cc1c(F)ccc2cc(O)cc(-c3ncc4c(N5CC6CCC(C5)N6)nc(OCC5(CN6CCC7(CCC(CN8CCC(c9ccc%10c(C%11CCC(=O)NC%11=O)nn(C)c%10c9)CC8)CC7)CC6)CC5)nc4c3F)c12 (stereo not drawn) [Compound 26a]	11 to 30%
C#Cc1c(F)ccc2cc(O)cc(-c3ncc4c(N5CC6CCC(C5)N6)nc(OCC5(CN6CCC(N7CC(C(=O)N8CCC(c9ccc%10c(C%11CCC(=O)NC%11=O)nn(C)c%10c9)CC8)C7)CC6)CC5)nc4c3F)c12 (stereo not drawn) [Compound 35a]	> 60%
C#Cc1c(F)ccc2cc(O)cc(-c3ncc4c(N5CC6CCC(C5)N6)nc(OCC5(CN6CC7(CCC(CN8CCC(c9ccc%10c(C%11CCC(=O)NC%11=O)nn(C)c%10c9)CC8)CC7)C6)CC5)nc4c3F)c12 (stereo not drawn) [Compound 32a]	31 to 60%
Nc1cc(Cl)c(C(F)(F)F)c(-c2ncc3c(N4CC5CCC(C4)N5)nc(OCC4(CN5CCC6(CC5)CC(N5CCC(c7ccc(NC8CCC(=O)NC8=O)cc7F)CC5)C6)CC4)nc3c2F)c1 (stereo not drawn) [Compound 21a]	> 60%
C#Cc1c(F)ccc2cc(O)cc(-c3ncc4c(N5CC6CCC(C5)N6)nc(OCC5(CN6CCC7(CC6)CC(N6CCC(c8ccc(NC9CCC(=O)NC9=O)cc8F)CC6)C7)CC5)nc4c3F)c12 (stereo not drawn) [Compound 12a]	> 60%
Nc1cc(Cl)c(C(F)(F)F)c(-c2ncc3c(N4CC5CCC(C4)N5)nc(OCC4(CN5CCC6(CC5)CC(N5CCC(c7ccc8c9c(cccc79)C(=O)N8C7CCC(=O)NC7=O)CC5)C6)CC4)nc3c2F)c1 (stereo not drawn) [Compound 13a]	> 60%
